# measurementProtocol: Phase 1b exploratory PK of xanomeline in healthy elderly subjects given KarXT
# Format: in vivo, human
# settings: human, plasma, oral; Cohort 2, final day of dosing; average dose before PK 61 mg, average TDD 156 mg
# Description: The purpose of this Phase 1b clinical trial was to evaluate the safety and tolerability of KarXT in healthy elderly volunteers and to assess its potential efficacy and safety in dementia-related psychosis (DRP). In the Phase 1b trial, the various doses and ratios were evaluated for both xanomeline and trospium in healthy elderly volunteers using a flexible dosing protocol titrated over about 2 to 3 weeks. The maximum dose was reached on Day 12, 15, and 17 in Cohorts 1, 2, and 3, respectively. […]
assayReadout: Cmax (ng/mL)
Reply with just the number (in ng/mL).

Ask | I am curious: what Cmax value has been reported for CCCCCCOc1nsnc1C1=CCCN(C)C1 [Xanomeline, xanomeline] ?
Reply | 14.2

* * *

# measurementProtocol: Phase 1b exploratory PK of xanomeline in healthy elderly subjects given KarXT
# Assay type: in vivo, human
# settings: human, plasma, oral; Cohort 1, final day of dosing; average dose before PK 67 mg, average TDD 172 mg
assayReadout: Cmax (ng/mL)
Reply with just the number (in ng/mL).

Ask | I am curious: what Cmax value has been reported for CCCCCCOc1nsnc1C1=CCCN(C)C1 ?
Reply | 7.3
